Molecular target: UniProt P10275
Test: Anti-DHT activity on AR transcription, MMTV-Luc reporter in PC-3 cells transfected with AR
Type: cell-based
Parameters: expressed in transfected cells; host or cells: PC-3
Settings: PC-3, 1 nM DHT, compound at 0.01, 0.1 or 1 μM
READOUT: suppression of DHT-induced AR transactivation (in words)

| MOLECULE | RESULT |
| --- | --- |
| C[C@]12CC[C@H]3[C@@H]([C@H](O)C=C4C[C@@H](O)CC[C@@]43C)[C@@H]1CC[C@@H]2O [No. 5, 3β,7α,17β-trihydroxyandrost-5-ene] | modest suppression |
| C[C@]12CC[C@H](O)C[C@@H]1CC[C@@H]1[C@@H]2CC[C@]2(C)C(=O)[C@H](Br)C[C@@H]12 [16α-bromoepiandrosterone] | little or no capacity |
| C[C@]12C=C[C@H](O)CC1=CC[C@@H]1[C@@H]2CC[C@]2(C)C(=O)CC[C@@H]12 [No. 16, 3β-hydroxyandrost-1,5-diene-17-one] | modest suppression |
| CC(=O)O[C@H]1C=C[C@@]2(C)C(=CC[C@H]3[C@@H]4CC[C@H](O)[C@@]4(C)CC[C@@H]32)C1 [3β-acetoxy-17β-hydroxyandrost-1,5-diene] | less effective |
| C[C@]12CC[C@H]3[C@@H]([C@@H](O)C=C4CC5(CC[C@@]43C)OCCO5)[C@@H]1CC[C@@H]2O | less effective |
| C[C@]12CC[C@H]3[C@@H](CCC4=C[C@@H](O)CC[C@@]43C)[C@@H]1CC[C@@H]2O [3β,17β-dihydroxyandrost-4-ene] | less effective |
| CCC(=O)O[C@H]1CC[C@H]2[C@@H]3C(=O)C=C4CC5(CC[C@]4(C)[C@H]3CC[C@]12C)OCCO5 | little or no capacity |
| COC(=O)[C@H]1CC[C@@]2(C)C(=CC(=O)[C@@H]3[C@@H]2CC[C@]2(C)C(=O)[C@H](C(=O)OC)C[C@@H]32)C1 | less effective |
| CC(=O)O[C@H]1C=C[C@@]2(C)C(=CC[C@@H]3[C@@H]2CC[C@]2(C)C(=O)CC[C@@H]32)C1 | modest suppression |
| C[C@]12C=CC(=O)C=C1CC[C@@H]1[C@@H]2CC[C@]2(C)C(=O)CC[C@@H]12 | less effective |
| C[C@]12CC[C@H]3[C@@H]([C@@H](O)C=C4C[C@@H](O)CC[C@@]43C)[C@@H]1CC[C@@H]2O [3β,7β,17β-trihydroxyandrost-5-ene] | little or no capacity |
| C[C@]12CC[C@H]3[C@@H]([C@H](O)CC4C[C@@H](O)CC[C@@]43C)[C@@H]1CC[C@@H]2O (stereo partly drawn) [3β,7α,17β-trihydroxyandrostane] | little or no capacity |
| CC(=O)O[C@H]1CC[C@H]2[C@@H]3CC(=O)C4=CC(=O)CC[C@]4(C)[C@H]3CC[C@]12C | little or no capacity |

* * *

Target: wild-type AR (Homo sapiens, UniProt P10275)
Sequence (P10275 whole entry): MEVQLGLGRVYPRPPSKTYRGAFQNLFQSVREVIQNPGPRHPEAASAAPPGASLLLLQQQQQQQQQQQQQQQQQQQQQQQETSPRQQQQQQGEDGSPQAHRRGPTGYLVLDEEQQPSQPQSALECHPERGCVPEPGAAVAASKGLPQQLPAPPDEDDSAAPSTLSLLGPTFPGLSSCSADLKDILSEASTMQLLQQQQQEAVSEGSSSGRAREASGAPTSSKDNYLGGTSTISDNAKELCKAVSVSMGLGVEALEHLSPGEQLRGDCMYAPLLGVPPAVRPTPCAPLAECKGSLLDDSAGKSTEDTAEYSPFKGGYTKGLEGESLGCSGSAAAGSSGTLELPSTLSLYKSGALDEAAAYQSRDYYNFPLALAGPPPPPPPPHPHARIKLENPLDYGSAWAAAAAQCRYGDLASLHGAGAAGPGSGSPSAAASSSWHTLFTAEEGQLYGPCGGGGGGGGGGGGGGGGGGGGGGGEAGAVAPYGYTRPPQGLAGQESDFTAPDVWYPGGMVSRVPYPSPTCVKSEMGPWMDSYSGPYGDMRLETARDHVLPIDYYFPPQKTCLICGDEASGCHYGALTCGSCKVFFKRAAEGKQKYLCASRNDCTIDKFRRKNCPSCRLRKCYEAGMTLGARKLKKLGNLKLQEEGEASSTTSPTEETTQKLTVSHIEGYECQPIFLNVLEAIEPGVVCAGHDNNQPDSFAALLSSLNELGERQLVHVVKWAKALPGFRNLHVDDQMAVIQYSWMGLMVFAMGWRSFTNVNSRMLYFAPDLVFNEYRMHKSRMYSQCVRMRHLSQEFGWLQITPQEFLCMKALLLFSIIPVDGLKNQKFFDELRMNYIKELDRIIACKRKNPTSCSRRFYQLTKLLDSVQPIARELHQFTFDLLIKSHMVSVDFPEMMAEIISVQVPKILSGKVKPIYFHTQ
Experiment: AR transcriptional activity (androgenic activity), MMTV-Luc reporter in PC-3 cells transfected with wild-type AR
Type: cell-based
Design: expressed in transfected cells; host or cells: PC-3
Details: PC-3, wild-type AR plasmid + MMTV-Luc, compound at 1000 nM, 24 h
READOUT: induction on AR transcription as compared to mock treatment

| MOLECULE | RESULT |
| --- | --- |
| CC(=O)O[C@H]1C=C[C@@]2(C)C(=CC[C@@H]3[C@@H]2CC[C@]2(C)C(=O)CC[C@@H]32)C1 [No. 14, 3β-acetoxyandrost-1,5-diene-17-one] | marginal induction |
| C[C@]12C=C[C@H](O)CC1=CC[C@@H]1[C@@H]2CC[C@]2(C)C(=O)CC[C@@H]12 [No. 16, 3β-hydroxyandrost-1,5-diene-17-one] | marginal induction |
| C[C@]12CC[C@H]3[C@@H]([C@H](O)C=C4C[C@@H](O)CC[C@@]43C)[C@@H]1CC[C@@H]2O [No. 5, 3β,7α,17β-trihydroxyandrost-5-ene] | marginal induction |
| CC(=O)O[C@H]1C=C[C@@]2(C)C(=CC[C@@H]3[C@@H]2CC[C@@]2(C)[C@H]3CCC23OCCO3)C1 [ADEK] | marginal induction |
